Listing of entries alongside the reported total protein half-life in vivo.
Experiment: total protein half-life in vivo (active degradation + dilution); higher = more stable protein
Details: wild type E. coli NCM3722; growth: P-lim chemostat; doubling time 6 h
Give just the number in h; leave the unit off.

SEQUENCE INPUT	TEST READOUT	UNIT ANNOTATION	VALUE MEASURED
MIKRVLVVSMVGLSLVGCVNNDTLSGDVYTASEAKQVQNVSYGTIVNVRPVQIQGGDDSNVIGAIGGAVLGGFLGNTVGGGTGRSLATAAGAVAGGVAGQGVQSAMNKTQGVELEIRKDDGNTIMVVQKQGNTRFSPGQRVVLASNGSQVTVSPR [P0A905]	total protein half-life in vivo	h	5.87
MKALSKLKAEEGIWMTDVPVPELGHNDLLIKIRKTAICGTDVHIYNWDEWSQKTIPVPMVVGHEYVGEVVGIGQEVKGFKIGDRVSGEGHITCGHCRNCRGGRTHLCRNTIGVGVNRPGCFAEYLVIPAFNAFKIPDNISDDLAAIFDPFGNAVHTALSFDLVGEDVLVSGAGPIGIMAAAVAKHVGARNVVITDVNEYRLELARKMGITRAVNVAKENLNDVMAELGMTEGFDVGLEMSGAPPAFRTMLDTMNHGGRIAMLGIPPSDMSIDWTKVIFKGLFIKGIYGREMFETWYKMAALIQSGLDLSPIITHRFSIDDFQKGFDAMRSGQSGKVILSWD	total protein half-life in vivo	h	6.2
MTVETQLNPTQPVNQQIYRILRRDIVHCLIAPGTPLSEKEVSVRFNVSRQPVREAFIKLAENGLIQIRPQRGSYVNKISMAQVRNGSFIRQAIECAVARRAASMITESQCYQLEQNLHQQRIAIERKQLDDFFELDDNFHQLLTQIADCQLAWDTIENLKATVDRVRYMSFDHVSPPEMLLRQHLDIFSALQKRDGDAVERAMTQHLQEISESVRQIRQENSDWFSEE [P0ACM2]	total protein half-life in vivo	h	5.18

Now take the following sequence into account.
For the sequence MAANAFVRARIDEDLKNQAADVLAGMGLTISDLVRITLTKVAREKALPFDLREPNQLTIQSIKNSEAGIDVHKAKDADDLFDKLGI , give its reported total protein half-life in vivo. 0.432
